PARTICULARS: buffer; pH 7.4; 200.0 µM

COMPOUND	MODIFIER	solubility kinetic (µg/mL)
O=C(O)CN1C(=O)CSC1=S	>	28.7
O=C(CNC(=O)c1ccncc1)N/N=C/c1ccc(Br)cc1	>	54.2
CC(=C1C(=O)c2ccccc2C1=O)N1CCN(c2ccc(F)cc2)CC1	>	52.6
COc1ccc(Cl)cc1C(=O)Nc1nc(C)cc(C)n1	>	43.8
CC1(C(=O)Nc2ccc(S(=O)(=O)Nc3ncccn3)cc2)CCCC1	>	54.1
COc1ccc(C(=O)NCc2ccc(N3CCN(C)CC3)cc2)cc1	>	50.9
CN[C@H]1CC[C@@H](c2ccc(Cl)c(Cl)c2)c2ccccc21	>	45.9
C=CCNC(=S)N/N=C(\C)c1cccc(NC(C)=O)c1	>	43.6
CC1CN(C)CCC1OC(=O)c1ccccc1.Cl (stereo not given)	>	40.5
COc1cccc(Nc2nc(-c3cccnc3)cs2)c1	=	1.3
Fc1ccccc1-c1nc(-c2ccc(Br)o2)no1	<	0.3
O=C(NCc1cccnc1)C12CC3CC(CC(C3)C1)C2	=	38.7
COc1ccc(C(=O)O)cc1S(=O)(=O)NC(C)(C)C	>	43.1
Fc1ccc(CNC(=S)NCc2cccc(Cl)c2)cc1	=	27.2
CCc1cccc(C)c1NC(=O)CCNC(=O)c1cccc(C)c1	>	48.7
CC(CCc1ccccc1)N1CCN(C)CC1 (stereo not given)	=	33.2
CCC(NC(=O)C1CCCC1)c1ccc(C)cc1 (stereo not given)	=	34.8
COc1ccc(OCC(=O)NCCCCCCNC(=O)COc2ccc(OC)cc2)cc1	=	2.6
Cc1ccc(CC(=O)NCCC(=O)O)cc1	>	33.2
O=S(=O)(NC(=S)Nc1ccccc1)c1ccc(F)cc1	>	46.6
CCN(CC)c1ncc(C#N)c(N)n1	=	25.6
CC(C)COc1cccc(C(=O)N(C)CC(=O)Nc2cccc3ccccc23)c1	=	33.6
CCn1c(CNC(=O)c2cccnc2)cc2ccccc21	>	41.9
O=C(Oc1ccc(C(=S)N2CCOCC2)cc1Cl)c1ccccc1F	=	9.9
O=C(/C=C/c1ccccc1)OCc1cncs1	=	32.2
Cc1ccc(NC(=O)CCNC(=O)c2ccccc2)cc1F	=	2.9
CC(C)CCNC(=O)c1cc(-c2cccs2)nc2ccccc12	<	0.3
O=C(CN1C2CCCC1CC(NC(=O)c1ccccc1)C2)NC1CC1 (stereo not given)	>	51.2
CC1CC(=O)Nc2ccccc2N1S(=O)(=O)c1cccs1 (stereo not given)	=	17
COc1ccccc1NC(=O)CSc1nc(SC)ns1	=	32.8
COc1ccccc1NC(=O)c1ccc(COc2ccccc2OC)cc1	=	3.1
CC(=O)c1ccc(S(=O)(=O)N2CCN(C(C)=O)CC2)cc1	>	46.6
O=C1OCCN/C1=C\C(=O)c1ccc(Cl)cc1	>	37.8
C=CCn1c(O)c(/C=C2/C=c3ccccc3=N2)c(=O)[nH]c1=S	=	1.2
Cc1cccc(C2=NOC(=O)/C2=C\c2ccccc2F)c1	=	6.5
Cc1nc(N)sc1C(=O)OCC(C)C	>	32.1
O=C(COc1ccc(Br)cc1)N(CCO)CCO	=	34.5
C=CCN1C(=O)/C(=C2/Sc3ccccc3N2CC)SC1=S	<	0.4
S=C(NCCc1cccc(Cl)c1)NCc1ccccc1	=	14.9
C/C(=C\c1cccs1)C(=O)c1c(C)cc(C)[nH]c1=O	>	41
